Listed here are variants together with their documented protein stability index.
B1: ZNF649 (parent)
chain: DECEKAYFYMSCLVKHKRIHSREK

- Variants of: B1
- TEST DETAILS: protein stability index of a GFP-peptide fusion (GPS, HEK-293T) (PSI 1-6); higher = more stable;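 further: lentivirally expressed fusions sorted by FACS into six bins by GFP to DsRed ratio, PSI derived from sequencing read proportions per bin multiplied by bin number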
- COND: c terminus: a fixed tail appended
Reply with just the number.

Kindly note the recorded protein stability index for `D1R` , which is 2.03

Measured protein stability index of `A6W` : 2.03

Measured protein stability index, `Y9E` : 3

Quick note, protein stability index for `D1I` landed at 1.98

Documented protein stability index of `V14F` : 1.78

variant `H20Q` , protein stability index observed: 2.6

Short answer for `K17G` : protein stability index was 2.42

Record `A6G` , field protein stability index: 2.75

Quick note, protein stability index for `K15C` landed at 2.41

Summary for this variant, `S21G` : protein stability index is 2.29

meta.source: the supplement of paper PMC10567573
